# Kd values compiled below
# assayed.target: RXRβ (Mus musculus)
# Sequence (P28704 1-520): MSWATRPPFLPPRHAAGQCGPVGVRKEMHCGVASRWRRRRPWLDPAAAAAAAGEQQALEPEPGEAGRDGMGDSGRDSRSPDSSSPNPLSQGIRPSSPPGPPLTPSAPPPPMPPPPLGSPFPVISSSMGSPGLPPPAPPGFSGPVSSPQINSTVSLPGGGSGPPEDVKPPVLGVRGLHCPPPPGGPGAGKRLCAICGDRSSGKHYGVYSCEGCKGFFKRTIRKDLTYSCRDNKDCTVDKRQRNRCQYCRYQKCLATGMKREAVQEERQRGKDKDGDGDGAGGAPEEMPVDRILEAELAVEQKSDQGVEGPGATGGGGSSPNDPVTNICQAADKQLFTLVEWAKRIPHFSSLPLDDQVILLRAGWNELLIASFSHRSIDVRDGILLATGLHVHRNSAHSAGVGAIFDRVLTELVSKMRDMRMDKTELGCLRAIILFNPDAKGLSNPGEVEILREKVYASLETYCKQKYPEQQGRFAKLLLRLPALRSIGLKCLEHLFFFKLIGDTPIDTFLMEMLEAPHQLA
# method.summary: RXR binding, RXRβ
# condition.summary: -v- tritiated LGD1069 and tritiated 9-cis retinoic acid
outcome.measure: Kd (nM)

1) CCCCCCCOc1c(/C(C)=C/C=C/C(C)=C/C(=O)O)cc(C(C)C)cc1C(C)C    100
2) COC(C)(c1ccc(C(=O)O)cc1)c1cccc2cc3c(cc12)C(C)(C)CCC3(C)C (stereo not shown)    13
3) CCCCCCCOc1cc2c(cc1\C(C)=C/C=C/C(C)=C/C(=O)O)C(C)(C)CCC2(C)C    12
4) CCCc1cc2c(cc1C1(c3ccc(C(=O)O)cc3)CC1)C(C)(C)CCC2(C)C    846
